- Test system: LOX IMVI
- test.protocol: NCI tumour cell line growth inhibition, 48 h
Active and inactive are the calls of the source. No stated cut-off is given here; in the data, active = GI50 up to about 1.1 µM and inactive = higher.
Respond only with the outcome that fits, drawn from active, inactive

compound	class.assignment
O=C(O)CCSc1nnc(COc2ccc(Cl)cc2)n1-c1ccccc1	inactive
O=c1[nH]c(=O)n(C2OC(CO)C(O)C2O)c2nc(-c3ccc(-c4ccccc4)cc3)cnc12 (stereo unspecified)	inactive
CCN(CC)c1ccc(C(=C2C=CC(=[N+](CC)CC)C=C2)c2ccccc2)cc1	active
Cc1cc([N+](=O)[O-])ccc1Sc1c2ccccc2nc2cc(Cl)ccc12	inactive
COc1c(-c2ccc3c(c2)OCO3)oc2cc(O)cc(O)c2c1=O	inactive
O=C(/C(=N/Nc1cn[nH]c(=O)c1Cl)c1ccccc1)c1ccccc1	inactive
S=C(Nc1ccccn1)Nc1ccccc1Cl	inactive
c1ccc(CNc2c3c(nc4ccccc24)CCC3)cc1	inactive

Outcome? CCC(/C(=N/NC(=O)C[N+](C)(C)C)c1ccccc1)C1OC(=O)c2ccccc21 (stereo unspecified)
inactive

Note, next up: O=C(NCCNCCO)c1cccc2ccc(-c3ccccc3)nc12
inactive

Note, next up: O=C(CSc1nnc(-c2ccc(/N=C\c3ccc(Cl)cc3)cc2)o1)Nc1ccccc1[N+](=O)[O-]
inactive

Note, next up: O=C(c1ccccc1)c1cc[n+](C2=C([N-]S(=O)(=O)c3ccccc3)C(=O)c3ccccc3C2=O)cc1
inactive

Note, next up: O=c1c2cc(Cl)ccc2n2nnc3ccc(NCCNCCO)c1c32
active

Note, next up: O=C(CCc1nnc(S)[nH]1)NC12CC3CC(CC(C3)C1)C2
inactive

Note, next up: FC(F)(F)c1nc(-c2ccccc2Cl)[nH]c1C(F)(F)F
active

Note, next up: COC1CCC(OC2CC(C3(C)CCC4(CC(O)C(C)C(C(C)/C=C(\C)C(=O)C(C)CC(C)C(=O)O)O4)O3)OC3(OC(C4OC(O)(CO)C(C)CC4C)CC3C)C2C)OC1C (stereo unspecified)
active

Note, next up: CCN1C(=O)C(=C/C=C/c2ccc(OC)cc2)C(=O)N(CC)C1=S
inactive

Note, next up: CN(C)/C=C/c1c2c(nc3ccccc13)C(=O)c1ccccc1C2=O
active

Note, next up: CCC(=O)Nc1cccc(/N=C/c2ccc(OC(=O)/C=C\c3ccccc3)cc2)c1
inactive

Note, next up: Cc1ccsc1C(=S)Nc1ccc(Cl)c(C(=O)OC(C(C)C)C(C)C)c1
inactive

Note, next up: O=C(Cc1ccc2ccccc2c1)NCc1ccc(C(=O)NCCc2ccccc2)cc1
inactive

###

- System: CAKI-1
- test.protocol: NCI tumour cell line growth inhibition, 48 h
Activity calls are given as the source filed them. No stated cut-off is given here; in the data, active = GI50 up to about 1.1 µM and inactive = higher.
Respond only with the outcome that fits, drawn from label 1 for active, label 0 for inactive

compound	class.assignment
CCOC(=O)C(NC(=O)c1cccc(Cl)c1)(N1CCN(c2cc3c(cc2F)c(=O)c(C(=O)O)cn3C2CC2)CC1)C(F)(F)F (centres undefined)	label 0
Brc1ccc2[nH]cc(-c3csc(-c4c[nH]c5ccc(Br)cc45)n3)c2c1	label 0
O=C(/C(=N/Nc1cn[nH]c(=O)c1Cl)c1ccccc1)c1ccccc1	label 0
Clc1cc2nc(C3CCCCO3)[nH]c2cc1Cl (centres undefined)	label 0
O=C1C(Cl)=C(N2CCN(c3ncccn3)CC2)C(=O)c2c(O)ccc(O)c21	label 0
COc1cc2oc(-c3ccc(O)cc3)cc(=O)c2c(OC)c1O	label 0
Oc1cc(-c2cccc(OC(F)(F)F)c2)nc2ccc(N3CCCC3)cc12	label 1
COc1ccc(C2SC(=N)Nc3c2c(C)nn3C(=O)c2ccccc2O)cc1 (centres undefined)	label 1
CCCN1CCC(=O)N(CCC(F)(F)C(F)(F)C(F)(F)C(F)(F)C(F)(F)C(F)(F)F)C1=S	label 0
CN(C)CCCN1c2ccccc2CCc2cc([N+](=O)[O-])ccc21	label 0

Outcome? CSc1ccc(C=C2N=C(c3ccccc3)N(c3cc(C(=O)c4ccccc4)ccc3N3C(=O)/C(=C/c4ccc(SC)cc4)N=C3c3ccccc3)C2=O)cc1
label 0

Note, next up: COC(C)(C)/C=C/c1[nH]c2ccccc2c1CC(=O)NCCc1cn(C(c2ccccc2)(c2ccccc2)c2ccccc2)cn1
label 0

Note, next up: CC[C@]1(Cc2ccc(OC)c(OC)c2)[C@@H]2C[C@@H](C(=O)OC)ON2O[C@H](OC2CCCC2(c2ccccc2)c2ccccc2)[C@@H]1OC(C)=O (some centres undefined)
label 0

Note, next up: O=C[C@]12CC=C3OC4OC5(CCCCC5)OC4[C@H]3[C@H]1C(=O)C=CC2=O (some centres undefined)
label 0

Note, next up: Cc1cc([N+](=O)[O-])ccc1Sc1c2ccccc2nc2cc(Cl)ccc12
label 0

Note, next up: Nc1ccc(C(=O)N/C(=C\c2ccc3c(c2)OCO3)c2nc3ccccc3s2)cc1
label 0

The origin of these recorded values is ChEMBL document CHEMBL1201862.
